Data provenance: the supplement of paper PMC7125110

B1: glmS ribozyme (parent)
chain: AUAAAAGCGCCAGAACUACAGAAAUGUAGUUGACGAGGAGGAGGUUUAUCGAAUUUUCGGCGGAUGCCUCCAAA

# Variants of: B1
# METHOD SUMMARY: self-cleavage kobs at 10000 uM GlcN6P; higher = faster cleavage; RNA array
# CONDITION INFO: with glucosamine-6-phosphate
Variants at the floor of the assay were thinned out.
Some variants, each annotated with its measured self-cleavage kobs at 10000 uM GlcN6P.
Return type: number; implicit unit s⁻¹.

AUAAAAGCGCCAGAACUACAGAAAUGUAGUUGACGAGGAUGAGGUUUAUCGAUUUUUCGGCGGAUGCCUCCAAA [G40U A53U]
0.00266
AUAAAAGCGCCAGAACUACAGAAAUGUAGUUGACGAGGAGGAGGUUGAUCGAAUUUGCGGCGGAUGCCUCCAAA [U47G U57G]
5.61e-05
AUAAAAGCGCCAGAACUACAGAAAUGUAGUUCACGAGGAGGAGGUUGAUCGAAUUUUCGGCGGAUGGCUCCAAA [G32C U47G C67G]
6.01e-05
AUAAAAACGCCAUAACUACAGAAAUGUAGUUGACGAGGAGGAGGUUUAUCGAAUUUUCGGCGGAUGCCGCAAAA [G7A G13U U69G C71A]
0.000516
AUAAAAGCGCCAGAACUACAGAAAUGUAGUUGACGAGGAGGAGGGUUAUCGAAUUUUCGGCGGAUGCCUCUAAA [U45G C71U]
0.00653
AUAAAAGCGCCAGAACUACAGAAAUGUAGUUGACGAGGAGGAGGUUUAUUGAUUUUUCGGCGGAUGCCUCCAAA [C50U A53U]
3.82e-05

Input: Recorded self-cleavage kobs at 10000 uM GlcN6P of AUAAAAGCGCCAGGACUACAGAAAUGUAGUUGACGAGGAGGAGGUUUAUCGAAUUCUCGGCGGAUGCCUCCAAA [A14G U56C] , please.
Output: 0.0157

Input: Recorded self-cleavage kobs at 10000 uM GlcN6P of AUAAAAGCGCCAGAACUACAGAAAUGUAGUUGACGAGGAGAAGGUUUAUCGAACUUUCGGCGGAUGCCUCCAAA [G41A U54C] , please.
Output: 0.0004

Input: Recorded self-cleavage kobs at 10000 uM GlcN6P of AUAAAAGCGCCAGAACUACAGAAAUGUAGUUACCGAGGAGGAGGUUUAUCGAAUUUUCGGCGGAUGCGUCGAAA [G32A A33C C68G C71G] , please.
Output: 8.64e-05

Input: Recorded self-cleavage kobs at 10000 uM GlcN6P of AUAAAAGUACCAGAACUACAGAAAUGUAGUUGACGAGGAGGAGGUUUAUGGAAUUUUCGGCGGAUGUCUCCAAA [C8U G9A C50G C67U] , please.
Output: 6.88e-05

Input: Recorded self-cleavage kobs at 10000 uM GlcN6P of AUAAAAGCGCCAGAACUACAGAAAUGUAGUGGACGAGGAGGAGGUUUAUCGGAUUUUCGGCGGAUGCCUCCAAA [U31G A52G] , please.
Output: 0.000352
